- System: MDA-N
- assay.overview: NCI tumour cell line growth inhibition, 48 h
The source made the active and inactive calls. No stated cut-off is given here; in the data, active = GI50 up to about 1.1 µM and inactive = higher.
The categories you may choose from are Y for active, N for inactive

Would you please look over these solved cases?
{"compound": "O=C(O)/C(Cc1c[nH]nn1)=N\\O", "classification": "N"}
{"compound": "O=C1NC(c2cccc(OCc3ccccc3)c2)Nc2ccccc21 (stereo not drawn)", "classification": "Y"}
{"compound": "COc1cc2c(cc1O)C(c1cc(O)c(O)c(OC)c1)C(O)(C(=O)O)C(CO)C2O (stereo not drawn)", "classification": "N"}
{"compound": "Cc1cc(/N=N/c2ccccc2C)ccc1N", "classification": "N"}
{"compound": "CCN(CC)CCCC(C)Nc1cc(/C=C/c2ccc(Cl)cc2)nc2cc(N(C)C)ccc12 (stereo not drawn)", "classification": "N"}
{"compound": "COc1ccc(/C=C2/N/C(=N\\N=C/C(O)C(O)C(O)C(O)CO)NC2=O)cc1 (stereo not drawn)", "classification": "N"}
{"compound": "CC(=O)OCC1=C(C)C[C@H]([C@@H](COC(C)=O)C2CCC3C4C[C@H]5O[C@]56CC=CC(=O)[C@]6(C)C4CC[C@@]32C)OC1=O (stereo partly drawn)", "classification": "Y"}
{"compound": "O=C(Nc1cnc(O)nc1O)C(Cl)Cl", "classification": "N"}
{"compound": "C=C1C[C@]23CC[C@@H]4C(CO)(CO)CC(=O)C[C@]4(C)[C@@H]2C(O)C[C@H]1C3 (stereo partly drawn)", "classification": "N"}
{"compound": "Clc1cccc(Cl)c1/C=N/C12CC3CC(CC(C3)C1)C2", "classification": "N"}

IN: Record request — test call for O=NN(CCCl)C(=O)NCCCl [CARMUSTINE]
OUT: N

IN: Short answer needed: outcome of this test for "O=C1OCC(CN2CCC(n3c(=O)[nH]c4ccccc43)CC2)=C1c1ccccc1" ?
OUT: N

IN: Outcome logged for COC(=O)C1CCCCCCCCCCC12SCCCS2 (stereo not drawn) in this assay:
OUT: N
